# Procedure text: rat pharmacokinetic studies
# Settings: rat, SC, 2 mg/kg; mean, n = 3
PEG = not defined here
Measurement label: Cmax

>>> experimental_result("SEQ ID NO: 26: PEGylated double homoarginine analog (WVTHXLAGLLSXSGGVVRKNFVPTDVGPFAF; PEGylated; homoarginine residues; CGRP peptide; MOD_RES (1)..(1): …ON; MISC_FEATURE (5)..(5): xaa=homoarginine; MISC_FEATURE (12)..(12): xaa=homoarginine; MISC_FEATURE (19)..(19): PEGylated; MOD_RES (31)..(31): AMIDATION)")
"143 ng/mL"
>>> experimental_result("SEQ ID NO: 32: PEGylated R11Cit, R18Cit analog (product of SEQ ID NO:31) (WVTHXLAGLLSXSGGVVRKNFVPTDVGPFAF; PEGylated; citrulline at 11 and 18; CGRP peptide; MOD_RES (1)..(1): …ON; MISC_FEATURE (5)..(5): xaa=citrulline; MISC_FEATURE (12)..(12): xaa=citrulline; MISC_FEATURE (19)..(19): PEGylated; MOD_RES (31)..(31): AMIDATION)")
"1879 ng/mL"
>>> experimental_result("SEQ ID NO: 15: 20 kDa PEG conjugate of SEQ ID NO:7 (reductive alkylation) (Ac-WVTHRLAGLLSRSGGVVRK(20 kDa PEG)NFVPTDVGPFAF-NH2)")
"137 ng/mL"
>>> experimental_result("SEQ ID NO: 40: double glutamine analog PEGylated through amine linkage (Ac-WVTHQLAGLLSQSGGVVRK(PEG)NFVPTDVGPFAF-NH2; reading uncertain)")
"121 ng/mL"
